The measurements presented in this section are drawn from patent US9981940B2.

test-protocol: log P by HPLC (OECD Guideline 117), method [b] neutral range
Format: physicochemical
condition-context: HPLC, method [b] neutral range
Protocol: The log P values were determined analogously to OECD Guideline 117 (EC Directive 92/69/EEC) by HPLC (high-performance liquid chromatography) using reversed-phase columns (C 18), by the following methods: [b] The LC-MS determination in the neutral range is effected at pH 7.8 with 0.001 molar aqueous ammonium hydrogencarbonate solution and acetonitrile as eluents; linear gradient from 10% acetonitrile to 95% acetonitrile.
recorded-metric: logP[b]
Give bare numbers.

C=CCn1c(OC)nn(-c2ccc(C)c([S+]([O-])CC(F)(F)F)c2)c1=O (stereo not shown) ... 2.57

Hey, can you go through the list below and give me logP[b] for every item?
1. CCC[S+]([O-])c1nn(-c2cc([S+]([O-])CC(F)(F)F)c(C)cc2F)c(=O)n1CC (stereo not shown)
2. Cc1cc(F)c(-n2nc(C(F)(F)F)n(C3CC3)c2=O)cc1[S+]([O-])CC(F)(F)F (stereo not shown)
3. Cc1cc(F)c(-n2nc(OCC(C)(C)C)n(C3CC3)c2=O)cc1SCC(F)(F)F
4. Cc1cc(F)c(-n2nc([S+]([O-])C(C)C)n(C3CC3)c2=O)cc1[S+]([O-])CC(F)(F)F (stereo not shown)
5. CCSc1nn(-c2cc([S+]([O-])CC(F)(F)F)c(C)cc2F)c(=O)n1CC (racemic)
6. Cc1cc(F)c(-n2nc(SCC(F)(F)F)n(C3CC3)c2=O)cc1[S+]([O-])CC(F)(F)F (stereo not shown)

Solution:
1: 2.18; 2: 2.82; 3: 4.71; 4: 2.03; 5: 2.72; 6: 2.89

Hey, can you go through the list below and give me logP[b] for every item?
1. COc1nn(-c2cc(SCC(F)(F)F)c(C)cc2F)c(=O)n1CC(F)(F)F
2. Cc1cc(F)c(-n2nc(N(C)C)n(C)c2=O)cc1[S+]([O-])CC(F)(F)F (racemic)
3. COc1nn(-c2cc(SCC(F)(F)F)c(C)cc2F)c(=O)n1C1CC1
4. COc1nn(-c2ccc(Cl)c(SCC(F)(F)F)c2)c(=O)n1C1CC1
5. COc1nn(-c2cc([S+]([O-])CC(F)(F)F)c(C)cc2Cl)c(=O)n1C1CC1 (stereo not shown)
6. N#Cc1cc(F)c(-n2nc(C(F)(F)F)oc2=O)cc1[S+]([O-])CC(F)(F)F (racemic)

Solution:
1: 3.47; 2: 1.84; 3: 3.11; 4: 3.84; 5: 2.30; 6: 2.80
